# TARGET DESC: T1, CAPRIN-1 protein expressed on the cell surface of human cancer cells (human, UniProt Q14444 2-709)
# T1 sequence (looked up): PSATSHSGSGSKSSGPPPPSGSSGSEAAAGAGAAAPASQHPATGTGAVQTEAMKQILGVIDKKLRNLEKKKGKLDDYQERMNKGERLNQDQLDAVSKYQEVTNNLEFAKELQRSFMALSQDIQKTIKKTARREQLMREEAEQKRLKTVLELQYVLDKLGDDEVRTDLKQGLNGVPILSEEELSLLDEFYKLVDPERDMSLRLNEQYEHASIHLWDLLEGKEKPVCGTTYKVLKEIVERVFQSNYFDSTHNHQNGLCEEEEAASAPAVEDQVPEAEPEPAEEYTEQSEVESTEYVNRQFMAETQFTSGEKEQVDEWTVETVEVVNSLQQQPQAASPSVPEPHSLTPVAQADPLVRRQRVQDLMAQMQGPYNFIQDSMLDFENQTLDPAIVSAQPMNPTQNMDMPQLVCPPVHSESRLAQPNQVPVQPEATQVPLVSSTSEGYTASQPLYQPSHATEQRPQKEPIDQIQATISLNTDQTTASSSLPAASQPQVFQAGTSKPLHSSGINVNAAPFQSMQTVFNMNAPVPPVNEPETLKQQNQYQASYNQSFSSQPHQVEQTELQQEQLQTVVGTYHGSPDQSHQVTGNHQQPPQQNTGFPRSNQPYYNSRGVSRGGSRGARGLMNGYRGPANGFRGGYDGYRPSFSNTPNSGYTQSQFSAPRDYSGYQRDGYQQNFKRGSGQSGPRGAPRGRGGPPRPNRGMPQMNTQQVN
# ASSAY EXPLANATION: cell-based or functional assay
ASSAY METRIC: cytotoxicity (ADCC, 51Cr release) on TGBC14TKB, human NK cells

{"BINDER": "mouse monoclonal antibody #8 (antibody, V domains shown, mouse hybridoma antibody; also called anti-CAPRIN-1 mouse monoclonal antibody #8; anti-CAPRIN-1 monoclonal antibody #8) VH: GGGLVKPGGSLKLSCAASGFAFSSYDMSWIRQTPEKRLEWVAYISSGAGSTYYPDTVKGRFTVSRDNAKNTLYLQMSSLKSEDTAMYYCARHFYRFDYWGQGTTVTVSS VL: SIVMTQTPKFLLVSAGDRITITCKASQSVSNDVAWYQQKPGQSPKLLIYYASNRYTGVPDRFTGSGYGTDFTFTISTVQAEDLAVYFCQQDDRFPLTFGAGPS", "ENDPOINT VALUE": "≥ 15%"}
{"BINDER": "mouse monoclonal antibody #14 (antibody, V domains shown, mouse hybridoma antibody; also called anti-CAPRIN-1 mouse monoclonal antibody #14; anti-CAPRIN-1 monoclonal antibody #14) VH: EVQLHQFGAELVKPGASVKISCKASGYTFTDYNMDWVKQSHGKSLEWIGDINPNYDSTSYNQKFKGKATLTVDKSSSTAYMELRSLTSEDTAVYYCARSRSYDYEGFAYWGQGTLVTVSA VL: DIQLTQSPASLSASVGETVTITCRASGNIHNYLAWYQQKQGKSPQLLVYNAKTLADGVPSRFSGSGSGTQYSLKINSLQPEDFGSYYCQHFWSTLTFGGGTKLEIKQ", "ENDPOINT VALUE": "≥ 15%"}

# evaluate next
The recorded cytotoxicity (ADCC, 51Cr release) on TGBC14TKB, human NK cells for entry mouse monoclonal antibody #4 (antibody, V domains shown, mouse hybridoma antibody; also called anti-CAPRIN-1 mouse monoclonal antibody #4; anti-CAPRIN-1 monoclonal antibody #4) VH: GAELVRSGASVKMSCKASGYSFTDYNMYWVKQTPGQGLEWIGYIYPGNGGTNYNQKFKGKATLTADTSSSTAYMQISSLTSEDSAVYFCARDYDDGGYAMDYWGQGTTVTVSS VL: DIQMTQSPASLSASVGETVTITCRASGNIHNYLTWYQQKQGKSPQLLVYNAKTLADGVPSRFSGSGSGTQYSLKINRLQPEDFGSYYCQHFWNIPWTFGGGTKLNSR equals ≥ 15%
